target: T1, CD4 (Homo sapiens, UniProt P01730); test: CD4 competitive binding assay (FITC anti-human CD4 antibody, SUP-T1 cells); settings: 100 μM; inhibition of anti-human CD4 antibody binding to SUP-T1 cells
T1 construct: endogenous in cells; host or cells: SUP-T1 cells
We use 10% as the dividing line for Inhibition at 100 μM (%): on or above the line is Yes, below is No.

COMPOUND	TGT	CLASS_NAME
O=c1oc2cc(O)ccc2c2c1CCCC2	T1, CD4 (Homo sapiens, UniProt P01730)	No
Cc1cc(=O)c2c(o1)-c1c(cc(O)c(O)c1C(=O)O)OC2	T1, CD4 (Homo sapiens, UniProt P01730)	No
Cc1cc(=O)c2cccc(CC(=O)O)c2o1	T1, CD4 (Homo sapiens, UniProt P01730)	Yes
O=C(O)Cc1cc(=O)oc2cc(O)ccc12	T1, CD4 (Homo sapiens, UniProt P01730)	Yes
Cc1cc(=O)oc2cc(O)cc(O)c12	T1, CD4 (Homo sapiens, UniProt P01730)	No

[ask] Does the reported Inhibition at 100 μM (%) for `CCC(=O)c1c(O)c2ccccc2oc1=O` fall at or above the 10% mark?
[reply] Yes

[ask] Does the reported Inhibition at 100 μM (%) for `CCCCC(=O)c1c(O)ccc2c(C)cc(=O)oc12` fall at or above the 10% mark?
[reply] Yes

---

Test system: HIV-1 (NL4-3 strain)
Assay: microbe, parasite or virus in culture
Format: cell-based
Details: Human immunodeficiency virus 1, NL43, PBMC; PBMCs, HIV-1 NL4-3, 24 h; read-out: IC50, HIV-1 entry inhibition (intracellular p24)
Procedure: We also performed anti-HIV-1 entry assays to investigate the potential suppression by 3 of HIV-1 infection via its entry mechanism. The Anti-HIV-1 entry assay was performed by measuring intercellular p24 antigen. […] The intercellular p24 antigen was measured according to the protocol provided with the HIV-1 ELISA kit (PerkinElmer Inc. Waltham, MA, USA).
PROPERTY_NAME: IC50 (µM)
// return numeric value only (unit: µM, not printed)

[ask] Lab note: record IC50 of O=C(O)CCc1c2ccc(=O)c(O)c-2oc2c(O)c(O)ccc12 [Compound 3] tested on HIV-1 (NL4-3 strain).
[reply] 9

---

biological target: T1, CD4 (Homo sapiens, UniProt P01730); assay: CD4 competitive binding assay (FITC anti-human CD4 antibody, SUP-T1 cells); conditions: SUP-T1 cells, anti-human CD4 antibody competition
T1 construct: endogenous in cells
PROPERTY_NAME: pIC50
# log scale: pIC50 equals minus log10 of the concentration in mol/L

> print(dat)
                                test.smiles  quantitative.readout
1  O=C(O)CCc1c2ccc(=O)c(O)c-2oc2c(O)c(O)ccc12                  4.35

Field: next compound
[ask] Could you please provide reported pIC50 for `O=C(O)/C=C/c1c2ccc(=O)c(O)c-2oc2c(O)c(O)ccc12` ? Thanks!
[reply] 4.85

---

Target: T1, CD4 (Homo sapiens, UniProt P01730)
T1 construct: endogenous in cells; host or cells: SUP-T1 cells
Assay: CD4 competitive binding assay (FITC anti-human CD4 antibody, SUP-T1 cells)
Settings: transformed from % inhibition at 100 μM; presented as -ln
Procedure: We chose CD4-expressing SUP-T1 cells to perform the competitive CD4 binding assay. Non-labeled anti-human CD4 antibody (RPA-T4 clone, BioLegend, San Diego, CA, USA) was used as a positive control. The SUP-T1 cells were cultured in RPMI1640 medium supplemented with 10% (v/v) fetal bovine serum (FBS), 100 IU penicillin, 0.1 mg/mL streptomycin, and 2 mM L-glutamine. […] The fluorescence (485EX/528EM) was recorded using a Synergy II plate reader (BioTek Instruments, Inc., Winooski, VT, USA). […]
We use 3 as the dividing line for PInhibition (Experimental Data): on or above the line is True, below is False.

MOLECULE	CLASS_NAME
Cc1cc(=O)c2c(o1)-c1c(cc(O)c(O)c1C(=O)O)OC2	False
CCCCC(=O)c1c(O)c2ccccc2oc1=O	True

[ask] Does the reported PInhibition (Experimental Data) for `O=C(O)CCc1c2ccc(=O)c(O)c-2oc2c(O)c(O)ccc12` fall at or above the 3 mark?
[reply] True

[ask] Does the reported PInhibition (Experimental Data) for `Cc1cc(=O)c2cccc(CC(=O)O)c2o1` fall at or above the 3 mark?
[reply] True

[ask] Does the reported PInhibition (Experimental Data) for `O=C(O)CCc1cccc2c(=O)cc(-c3ccccc3)oc12` fall at or above the 3 mark?
[reply] True

[ask] Does the reported PInhibition (Experimental Data) for O=C(O)Cc1cc(=O)oc2cc(O)ccc12 [Compound 10] fall at or above the 3 mark?
[reply] True

[ask] Does the reported PInhibition (Experimental Data) for `O=C(O)Cc1cccc2c(=O)cc(Cc3ccccc3)oc12` fall at or above the 3 mark?
[reply] True

[ask] Does the reported PInhibition (Experimental Data) for `Cc1cc(=O)oc2cc(O)cc(O)c12` fall at or above the 3 mark?
[reply] False

[ask] Does the reported PInhibition (Experimental Data) for `CCCCC(=O)c1c(O)ccc2c(C)cc(=O)oc12` fall at or above the 3 mark?
[reply] True

The reported numbers originate from paper PMC6278378.
